- MEASUREMENT_PROTOCOL: Induction of erythrocyte lysis at 100 uM
- Type: cell-based
- MEASUREMENT_PARAMETERS: human, erythrocytes; read-out: Activity

| CHEMICAL_SMILES | REL | hemolysis at 100 µM / % |
| --- | --- | --- |
| N=C(N)NCCCCCNC(=O)[C@H](Cc1c[nH]c2ccccc12)NC(=O)c1cc(C(=O)N[C@@H](Cc2c[nH]c3ccccc23)C(=O)NCCCCCNC(=N)N)cc(C(=O)N[C@@H](Cc2c[nH]c3ccccc23)C(=O)NCCCCCNC(=N)N)c1 | = | 22.6 |
| O=C(O)c1cc(C(=O)O)cc(C(=O)O)c1 | < | 1 |
| NCCCCCNC(=O)[C@@H](N)Cc1c[nH]c2ccccc12 | < | 1 |
| N=C(N)NCCNC(=O)[C@H](Cc1c[nH]c2ccccc12)NC(=O)c1cc(C(=O)N[C@@H](Cc2c[nH]c3ccccc23)C(=O)NCCNC(=N)N)cc(C(=O)N[C@@H](Cc2c[nH]c3ccccc23)C(=O)NCCNC(=N)N)c1 | = | 5.1 |

* * *

- MEASUREMENT_PROTOCOL: Induction of erythrocyte lysis at 100 uM
- Format: cell-based
- MEASUREMENT_PARAMETERS: human, erythrocytes; read-out: Activity
Peptide text beside a SMILES is read from it.

| COMPOUND | REL | hemolysis at 100 µM, % |
| --- | --- | --- |
| NCCNC(=O)[C@H](Cc1c[nH]c2ccccc12)NC(=O)c1cc(C(=O)N[C@@H](Cc2c[nH]c3ccccc23)C(=O)NCCN)cc(C(=O)N[C@@H](Cc2c[nH]c3ccccc23)C(=O)NCCN)c1 | = | 1.2 |
| NCCNC(=O)[C@@H](N)Cc1c[nH]c2ccccc12 | < | 1 |
| NCCCC[C@@H]1NC(=O)[C@H](CCCCN)NC(=O)[C@H](Cc2ccccc2)NC(=O)[C@H](CCCCN)NC(=O)[C@H](Cc2c[nH]c3ccccc23)NC(=O)[C@H](Cc2c[nH]c3ccccc23)NC1=O (cyclo(FKKWWK)) | = | 10 |
| NCCCCCNC(=O)[C@H](Cc1c[nH]c2ccccc12)NC(=O)c1cc(C(=O)N[C@@H](Cc2c[nH]c3ccccc23)C(=O)NCCCCCN)cc(C(=O)N[C@@H](Cc2c[nH]c3ccccc23)C(=O)NCCCCCN)c1 | = | 0.4 |
| N=C(N)NCCC[C@@H]1NC(=O)[C@H](CCCNC(=N)N)NC(=O)[C@H](Cc2ccccc2)NC(=O)[C@H](CCCNC(=N)N)NC(=O)[C@H](Cc2c[nH]c3ccccc23)NC(=O)[C@H](Cc2c[nH]c3ccccc23)NC1=O (cyclo(RRWWRF)) | = | 24 |
